# TARGET: Human M4 (Homo sapiens, UniProt P08173)
# Construct: Human or rat M4 cDNA, along with the chimeric G protein Gqi5, were transfected into Chinese hamster ovary (CHO-K1) cells; expressed in transfected cells; host or cells: CHO-K1 (Chinese hamster ovary, ATCC), stably co-expressing Gqi5
# Sequence (P08173 whole entry): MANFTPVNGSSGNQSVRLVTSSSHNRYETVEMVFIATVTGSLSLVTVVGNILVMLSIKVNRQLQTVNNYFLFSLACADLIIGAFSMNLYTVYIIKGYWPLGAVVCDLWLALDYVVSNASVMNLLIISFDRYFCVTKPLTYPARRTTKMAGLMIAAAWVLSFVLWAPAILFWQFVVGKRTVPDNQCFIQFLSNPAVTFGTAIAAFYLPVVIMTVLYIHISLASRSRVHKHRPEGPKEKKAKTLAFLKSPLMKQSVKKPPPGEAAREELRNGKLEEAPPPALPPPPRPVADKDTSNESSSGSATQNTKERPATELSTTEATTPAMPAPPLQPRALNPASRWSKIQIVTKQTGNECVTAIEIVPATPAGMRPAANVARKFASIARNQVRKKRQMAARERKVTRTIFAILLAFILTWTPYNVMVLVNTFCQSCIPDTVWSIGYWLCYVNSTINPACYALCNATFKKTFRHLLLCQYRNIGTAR
# PROTOCOL: mAChR M4 cell-based functional assay (calcium flux, decrease of EC80 acetylcholine response)
# ASSAY SETUP: % ACh maximum at 30 μM
// values below are reported Human M4 Emin
MEASUREMENT NAME: Human M4 Emin (%)

[
  {
    "COMPOUND": "C[C@H]1CCCN(c2cc(C(F)(F)F)c(N[C@H]3C[C@@H]4CN(CC5CCOCC5)C[C@@H]4C3)nn2)C1",
    "TARGET": "Human M4 (Homo sapiens, UniProt P08173)",
    "MEASUREMENT": 4
  },
  {
    "COMPOUND": "Cc1ccc(F)cc1-c1cc(C(F)(F)F)c(O[C@H]2C[C@@H]3CN(CC4CCOCC4)C[C@@H]3C2)nn1",
    "TARGET": "Human M4 (Homo sapiens, UniProt P08173)",
    "MEASUREMENT": 7
  },
  {
    "COMPOUND": "[2H]C([2H])([2H])N(c1cc(C(F)(F)F)c(-c2ccc3nn(C)cc3c2C)nn1)[C@H]1C[C@@H]2CN(CC3CCOCC3)C[C@@H]2C1",
    "TARGET": "Human M4 (Homo sapiens, UniProt P08173)",
    "MEASUREMENT": 15
  },
  {
    "COMPOUND": "Cn1cc2cc(-c3cc(C#N)c(N[C@H]4C[C@@H]5CN(CC6CCCOC6)C[C@@H]5C4)nn3)ccc2n1 (single isomer, unassigned)",
    "TARGET": "Human M4 (Homo sapiens, UniProt P08173)",
    "MEASUREMENT": 10
  },
  {
    "COMPOUND": "Cc1ccc(F)cc1-c1cc(C(F)(F)F)c(N[C@H]2C[C@@H]3CN(CC4CCCCO4)C[C@@H]3C2)nn1 (single isomer, unassigned)",
    "TARGET": "Human M4 (Homo sapiens, UniProt P08173)",
    "MEASUREMENT": 3
  }
]

###

# TARGET: Human M4 (Homo sapiens, UniProt P08173)
# Construct: Human or rat M4 cDNA, along with the chimeric G protein Gqi5, were transfected into Chinese hamster ovary (CHO-K1) cells; expressed in transfected cells; host or cells: CHO-K1 (Chinese hamster ovary, ATCC), stably co-expressing Gqi5
# PROTOCOL: mAChR M4 cell-based functional assay (calcium flux, decrease of EC80 acetylcholine response)
# ASSAY SETUP: % ACh maximum at 30 μM; read-out: Human M4 Emin
Cut-off 6% on remaining activity at 30 µM: below means condition met, at or above means condition not met.

[
  {
    "SMILES REPR": "[2H]C([2H])(C1CCOCC1)N1C[C@H]2C[C@H](Nc3nnc(-c4ccc(C)cc4C)cc3C(F)(F)F)C[C@H]2C1",
    "CLASS ASSIGNMENT": "condition met"
  },
  {
    "SMILES REPR": "Cc1cc(CN2C[C@H]3C[C@H](Nc4ncc(-c5cc(F)ccc5Cl)cn4)C[C@H]3C2)ccc1F",
    "CLASS ASSIGNMENT": "condition not met"
  },
  {
    "SMILES REPR": "Cc1ccc(F)cc1-c1cc(C#N)c(N[C@H]2C[C@@H]3CN(C[C@@H]4CCOC4)C[C@@H]3C2)nn1",
    "CLASS ASSIGNMENT": "condition not met"
  },
  {
    "SMILES REPR": "Fc1ccc(Cl)c(-c2cc(C(F)(F)F)c(N[C@H]3C[C@@H]4CN(Cc5ccccn5)C[C@@H]4C3)nn2)c1",
    "CLASS ASSIGNMENT": "condition met"
  }
]
